Provide the reported Emax of each item.
# STUDY_TARGET: sGC α1/β1 heterodimer (Homo sapiens (Human), UniProt Q02108+Q02153)
# Sequence (Q02108 whole entry): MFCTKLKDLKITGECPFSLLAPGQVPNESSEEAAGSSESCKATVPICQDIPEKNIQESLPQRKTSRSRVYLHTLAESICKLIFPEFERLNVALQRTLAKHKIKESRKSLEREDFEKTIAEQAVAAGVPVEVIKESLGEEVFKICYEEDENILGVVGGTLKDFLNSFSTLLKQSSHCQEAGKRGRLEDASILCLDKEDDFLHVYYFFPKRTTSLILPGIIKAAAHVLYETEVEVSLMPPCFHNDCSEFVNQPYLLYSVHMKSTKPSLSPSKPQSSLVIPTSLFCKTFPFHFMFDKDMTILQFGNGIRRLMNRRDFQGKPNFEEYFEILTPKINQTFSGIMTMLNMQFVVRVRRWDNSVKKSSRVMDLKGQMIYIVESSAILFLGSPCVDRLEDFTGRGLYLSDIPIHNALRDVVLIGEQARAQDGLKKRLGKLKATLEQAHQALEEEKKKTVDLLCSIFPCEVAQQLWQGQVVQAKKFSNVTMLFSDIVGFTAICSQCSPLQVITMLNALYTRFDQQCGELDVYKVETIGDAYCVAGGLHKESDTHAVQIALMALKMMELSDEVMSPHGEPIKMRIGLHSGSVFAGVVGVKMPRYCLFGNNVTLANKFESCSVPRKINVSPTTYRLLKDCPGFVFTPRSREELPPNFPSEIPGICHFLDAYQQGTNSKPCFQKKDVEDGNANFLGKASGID
# Sequence (Q02153 whole entry): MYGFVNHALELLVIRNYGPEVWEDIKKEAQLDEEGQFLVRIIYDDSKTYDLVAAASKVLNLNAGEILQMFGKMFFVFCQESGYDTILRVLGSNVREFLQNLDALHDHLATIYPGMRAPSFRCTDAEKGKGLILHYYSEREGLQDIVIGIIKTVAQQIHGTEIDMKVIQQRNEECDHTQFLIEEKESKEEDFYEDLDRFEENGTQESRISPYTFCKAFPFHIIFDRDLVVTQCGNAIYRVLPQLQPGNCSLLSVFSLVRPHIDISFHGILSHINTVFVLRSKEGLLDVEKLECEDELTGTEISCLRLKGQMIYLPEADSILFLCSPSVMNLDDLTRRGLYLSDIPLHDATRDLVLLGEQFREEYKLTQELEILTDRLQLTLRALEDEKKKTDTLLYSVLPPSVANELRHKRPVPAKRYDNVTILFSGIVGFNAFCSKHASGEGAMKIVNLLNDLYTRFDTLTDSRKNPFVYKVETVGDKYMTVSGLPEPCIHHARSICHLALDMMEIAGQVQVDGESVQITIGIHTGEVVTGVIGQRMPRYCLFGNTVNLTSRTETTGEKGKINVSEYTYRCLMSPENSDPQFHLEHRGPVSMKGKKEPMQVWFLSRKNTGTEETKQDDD
# ASSAY_NOTES: Cell-based sGC functional assay (CASA assay), cGMP by HTRF
# MEASUREMENT_PARAMETERS: CHO-K1, cGMP production as percentage of maximum of compound A (set to 100%); CHO-K1/sGC cells; read-out: % Activation

Exercise: What value of Emax has been reported for the following compound? CC(C)CCc1nc(-c2nc(N)c3c(n2)NC(=O)C3(C)c2ccc(Cl)c(O)c2)cn2ccnc12 (stereo not shown)
Key: 117%

Exercise: And for CC1(c2ccc(O)c(Cl)c2)C(=O)Nc2nc(-c3cn4ccnc4c(Cc4ccccc4F)n3)nc(N)c21 (stereo not shown) ?
Key: 141%

Exercise: And for CC1(c2ccc(F)c(O)c2)C(=O)Nc2nc(-c3cn4ccnc4c(CCC(F)(F)C(F)(F)F)n3)nc(N)c21 (racemic) ?
Key: 79%

Exercise: And for CC1(c2nccc(O)c2Cl)C(=O)Nc2nc(-c3cn4ccnc4c(Cc4cc(F)cc(F)c4)n3)nc(N)c21 (stereo not shown) ?
Key: 86%

Exercise: And for CC1(c2cc(O)c(C#N)c(Cl)c2)C(=O)Nc2nc(-c3cn4ccnc4c(Cc4cccc(F)c4)n3)nc(N)c21 (stereo not shown) ?
Key: 91%

Exercise: And for CC1(c2ccc(Cl)c(O)c2)C(=O)Nc2nc(-c3cn4ccnc4c(Cc4ccccc4F)n3)nc(N)c21 (stereo not shown) ?
Key: 72%

Exercise: And for CC1(c2cccc(O)c2)C(=O)Nc2nc(-c3cn4ccnc4c(Cc4ccc(Cl)cc4)n3)nc(N)c21 (stereo not shown) ?
Key: 101%
